- targetDesc: MAP3K9 (human) (UniProt P80192)
- Sequence (P80192 whole entry, looked up): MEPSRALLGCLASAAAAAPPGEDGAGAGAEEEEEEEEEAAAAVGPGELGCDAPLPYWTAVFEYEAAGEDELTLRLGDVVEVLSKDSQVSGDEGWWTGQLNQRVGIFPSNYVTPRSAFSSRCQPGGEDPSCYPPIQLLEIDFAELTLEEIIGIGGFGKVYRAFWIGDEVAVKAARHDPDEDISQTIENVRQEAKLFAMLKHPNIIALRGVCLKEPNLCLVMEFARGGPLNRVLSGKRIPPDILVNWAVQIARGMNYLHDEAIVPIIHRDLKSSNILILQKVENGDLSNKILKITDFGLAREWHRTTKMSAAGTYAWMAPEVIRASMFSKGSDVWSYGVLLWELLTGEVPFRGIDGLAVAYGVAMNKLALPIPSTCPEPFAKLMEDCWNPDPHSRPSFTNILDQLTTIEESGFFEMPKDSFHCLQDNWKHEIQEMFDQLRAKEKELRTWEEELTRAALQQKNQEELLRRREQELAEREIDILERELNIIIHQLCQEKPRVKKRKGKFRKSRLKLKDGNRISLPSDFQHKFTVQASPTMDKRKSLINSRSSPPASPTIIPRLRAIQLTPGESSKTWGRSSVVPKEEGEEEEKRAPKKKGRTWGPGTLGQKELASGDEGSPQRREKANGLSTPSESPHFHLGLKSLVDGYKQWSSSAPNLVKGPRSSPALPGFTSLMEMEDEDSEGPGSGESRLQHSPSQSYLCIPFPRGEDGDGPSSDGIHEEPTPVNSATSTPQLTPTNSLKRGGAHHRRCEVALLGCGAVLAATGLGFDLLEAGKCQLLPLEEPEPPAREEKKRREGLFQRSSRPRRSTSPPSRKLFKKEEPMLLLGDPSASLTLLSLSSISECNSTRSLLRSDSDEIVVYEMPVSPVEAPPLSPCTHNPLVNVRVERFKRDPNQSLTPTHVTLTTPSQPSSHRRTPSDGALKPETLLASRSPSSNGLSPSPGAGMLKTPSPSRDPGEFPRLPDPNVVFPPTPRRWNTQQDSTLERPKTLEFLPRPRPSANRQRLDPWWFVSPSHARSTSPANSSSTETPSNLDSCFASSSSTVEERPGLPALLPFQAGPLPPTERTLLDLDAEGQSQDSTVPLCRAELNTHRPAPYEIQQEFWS
- methodNotes: radiometric filter-binding kinase assay
- statedConditions: compound 10.0 µM
I'd appreciate it if you could supply residual activity values for the items below.
Give bare numbers, in %.

Below: 2 molecules and their reported residual activity.
# smilesRecord, targetDesc, outputUnit, residual activity
measured = [
    ("CC(C)(C#N)c1ccc(N2C(=O)OCc3cnc4ccc(-c5cnc6ccccc6c5)cc4c32)cc1", "MAP3K9 (human) (UniProt P80192)", "%", 89),
    ("Cc1ccc(=O)n(-c2ccccc2)c1", "MAP3K9 (human) (UniProt P80192)", "%", 89),
]

Then there is this molecule:
Just so you know, measured residual activity for NS(=O)(=O)OC[C@@H]1C[C@@H](n2ccc3c(N[C@H]4CCc5ccccc54)ncnc32)C[C@@H]1O came out at 88
